target: KCC2 (Rattus norvegicus, UniProt Q63633); construct: gene Slc12a5; KCC2b isoform expressed in T-REx-293 cells; assay: SuperClomeleon Cl- flux assay in HEK-293 with and without KCC2; format: cell-based
Sequence (Q63633 43-1139 limits assumed): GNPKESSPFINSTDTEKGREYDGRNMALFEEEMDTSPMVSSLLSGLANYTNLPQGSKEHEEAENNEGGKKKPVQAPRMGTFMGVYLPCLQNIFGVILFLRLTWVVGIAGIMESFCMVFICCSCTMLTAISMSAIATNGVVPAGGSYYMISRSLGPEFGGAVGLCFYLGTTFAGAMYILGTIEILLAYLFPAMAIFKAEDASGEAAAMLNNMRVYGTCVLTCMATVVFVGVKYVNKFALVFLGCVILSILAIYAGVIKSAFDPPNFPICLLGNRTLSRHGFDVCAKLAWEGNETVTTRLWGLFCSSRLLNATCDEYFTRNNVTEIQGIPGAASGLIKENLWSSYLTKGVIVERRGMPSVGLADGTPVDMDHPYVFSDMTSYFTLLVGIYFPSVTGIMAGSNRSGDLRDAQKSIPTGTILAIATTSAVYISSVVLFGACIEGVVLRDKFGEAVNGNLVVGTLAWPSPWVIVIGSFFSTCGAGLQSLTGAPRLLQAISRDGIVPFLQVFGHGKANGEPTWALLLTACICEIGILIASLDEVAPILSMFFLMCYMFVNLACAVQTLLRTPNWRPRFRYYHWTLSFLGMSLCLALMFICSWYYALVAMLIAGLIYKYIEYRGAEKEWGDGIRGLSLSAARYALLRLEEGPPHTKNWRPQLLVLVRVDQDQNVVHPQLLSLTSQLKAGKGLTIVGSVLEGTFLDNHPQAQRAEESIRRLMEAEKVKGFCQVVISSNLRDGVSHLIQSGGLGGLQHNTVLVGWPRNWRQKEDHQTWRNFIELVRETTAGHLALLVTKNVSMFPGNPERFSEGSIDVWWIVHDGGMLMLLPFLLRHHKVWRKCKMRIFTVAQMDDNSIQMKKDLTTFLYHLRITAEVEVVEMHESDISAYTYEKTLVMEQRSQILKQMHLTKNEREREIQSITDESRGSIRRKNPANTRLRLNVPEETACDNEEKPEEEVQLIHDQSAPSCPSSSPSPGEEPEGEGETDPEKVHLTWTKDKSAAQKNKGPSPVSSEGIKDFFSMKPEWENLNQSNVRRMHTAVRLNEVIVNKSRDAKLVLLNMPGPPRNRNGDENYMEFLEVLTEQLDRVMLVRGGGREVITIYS
pEC50: −log10 of the molar value.
Reported endpoint: pEC50

                               query_smiles  value_observed
0  Cc1cccc2sc(N(CCN(C)C)C(=O)CCCS(=O)(=O)c3ccccc3)nc12            4.54
